Taken from patent US7459451B2.

Please respond with reported melting point for every item in the list.

Lab note: CCn1ncc2c(CC3CCCCC3)c(/C=C/C(=O)O)c(-c3ccccc3)nc21 [Example 206] gave melting point of 201 to 202 °C

The value of melting point measured for the compound CCn1ncc2c(-c3cncc(C)c3)c(/C=C/C(=O)O)c(C3CC3)nc21 [Example 214] turned out to be 221 to 222 °C

Reported melting point ( CCn1ncc2c(-c3cncc(C)c3)c(/C=C/C(=O)O)c(C(C)C)nc21 [Example 212] ) = 247 to 248 °C

Entry under test: CCOCc1nc2c(cnn2CC)c(-c2cncc(C)c2)c1/C=C/C(=O)O [Example 234] . Its melting point was 187 to 188 °C

// recorded melting point for CCn1ncc2c(-c3ccc(Cl)s3)c(/C=C/C(=O)O)c(C(C)C)nc21 [Example 224] : 163 to 165 °C

// sample CCn1ncc2c(-c3cncc(C)c3)c(CCC(=O)O)c(-c3ccccc3)nc21 [Example 98] , its melting point was 235 to 237 °C

Per the record, CCOC(=O)c1c(C)nc2c(cnn2CC)c1-c1ccnc(Cl)c1 [Example 3] has melting point of 109 to 110 °C

Record summary for CCn1ncc2c(-c3cncc(C)c3)c(CCC(=O)O)c(COC)nc21 [Example 92] : reported melting point = 154 to 155 °C

Kindly note the recorded melting point for CCn1ncc2c(-c3cncc(Br)c3)c(/C=C/C(=O)O)c(C(C)C)nc21 [Example 225] , which is 234 to 235 °C

---

QUANTITY MEASURED: melting point

// field: melting point; key: `CCn1ncc2c(-c3cncc(C)c3)c(CCC(=O)O)c(C3CC3)nc21` ; value = 205 to 207 °C

// field: melting point; key: `CCn1ncc2c(-c3cncc(Cl)c3)c(/C=C/C(=O)O)c(-c3ccccc3)nc21` ; value = 242 to 244 °C

`CCn1ncc2c(-c3cncc(Br)c3)c(/C=C/C(=O)O)c(COC)nc21` yielded melting point of 180 to 182 °C

Summary for this compound, `CCn1ncc2c(-c3cncc(C)c3)c(/C=C/C(=O)O)c(COCC3CC3)nc21` : melting point is 187 to 189 °C

# compound `Cc1cncc(-c2c(CCC(=O)O)c(C)nc3c2cnn3C)c1` ; its melting point = 205 to 207 °C

Lab book: melting point of `CCn1ncc2c(-c3cncc(C)c3)c(/C=C/C(=O)O)c(COC(C)C)nc21` noted as 198 to 199 °C

Noted for `CCn1ncc2c(-c3cncc(Cl)c3)c(/C=C/C(=O)O)c(COC)nc21` : its melting point reads 187 to 188 °C

The recorded melting point for `CCn1ncc2c(-c3cncc(C)c3)c(/C=C/C(=O)O)c(COCC3CCCCC3)nc21` is 172 to 173 °C

For `Cc1cncc(-c2c(/C=C/C(=O)O)c(C)nc3c2cnn3C)c1` the compound record lists melting point as 269 to 272 °C

Given item `CCn1ncc2c(-c3cncc(OC)c3)c(/C=C/C(=O)O)c(-c3ccccc3)nc21` , the value recorded as its melting point is 253 to 254 °C

Value of measured melting point for the entry `CCn1ncc2c(-c3cncc(C)c3)c(/C=C/C(=O)O)c(C3CCCCC3)nc21` : 255 to 257 °C

Consider `CCn1ncc2c(-c3cncc(C)c3)c(C#N)c(C)nc21` . Its measured melting point is 160 to 161 °C

Given item `CCn1ncc2c(-c3ccc(Cl)nc3)c(/C=C/C(=O)O)c(-c3ccccc3)nc21` , the value recorded as its melting point is 255 to 258 °C

The compound listed as `CCn1ncc2c(-c3ccnc(C)c3)c(/C=C/C(=O)O)c(C(C)C)nc21` shows melting point equal to 260 to 262.5 °C

Entry `CCn1ncc2c(-c3cncc(C)c3)c(/C=C/C(=O)O)c(COC)nc21` ; melting point = 195 to 196 °C

For `CCn1ncc2c(-c3cncc(Br)c3)c(/C=C/C(=O)O)c(C)nc21` the compound record lists melting point as 189 to 190 °C

Per the records, this compound ( `CCn1ncc2c(-c3ccc(Cl)s3)c(/C=C/C(=O)O)c(-c3ccccc3)nc21` ) has melting point equal to 187 to 188 °C

Memo: `CCn1ncc2c(-c3cncc(Br)c3)c(/C=C/C(=O)O)c(COCC3CC3)nc21` , reported melting point: 183 to 184 °C

The compound `CCn1ncc2c(-c3cncc(C)c3)c(CCC(=O)O)c(C3CCC3)nc21` showed melting point equal to 212 to 213 °C

// melting point value for `CCn1ncc2c(-c3cncc(C)c3)c(C(=O)NCc3ccc(OC)cc3)c(-c3ccccc3)nc21` : 203 to 204 °C

The reported melting point of the compound `CCC(CC)NC(=O)c1c(-c2ccccc2)nc2c(cnn2CC)c1-c1cncc(C)c1` was 170 to 172 °C

melting point reported for this compound `CCC(CC)c1nc2c(cnn2CC)c(-c2cncc(C)c2)c1CCC(=O)O` : 144 to 145 °C

In plain terms, `CCn1ncc2c(-c3cccc(Cl)c3)c(/C=C/C(=O)O)c(COC)nc21` has a documented melting point of 234 to 235 °C

In plain terms, `CCn1ncc2c(-c3cncc(C)c3)c(/C=C/C(=O)O)c(CC(C)C)nc21` has a documented melting point of 212 to 213 °C

Short answer for `CCn1ncc2c(-c3cncc(C)c3)c(CCC(=O)O)c(CC3CC3)nc21` : melting point was 184 to 185 °C

get_value(item= `CCn1ncc2c(-c3cncc(Br)c3)c(C#N)c(C)nc21` , readout=melting point) returns 165 to 166 °C

melting point in this record for `CCn1ncc2c(-c3cncc(C)c3)c(/C=C/C(=O)O)c(CC(C)(C)C)nc21` : 216 to 217.5 °C

Looking up `CCC(CC)c1nc2c(cnn2CC)c(-c2cncc(C)c2)c1/C=C/C(=O)O` , I found its melting point recorded as 197 to 199 °C

The value of melting point measured for the compound `CCn1ncc2c(-c3cncc(C)c3)c(CCC(=O)O)c(CC(C)C)nc21` turned out to be 190 to 191 °C

// melting point lookup, compound = `CCn1ncc2c(-c3cncc(C)c3)c(CCC(=O)O)c(COCC3CCCCC3)nc21` , result: 183 to 184 °C

Documented melting point of `CCn1ncc2c(-c3cncc(Br)c3)c(CCC(=O)O)c(C)nc21` : 178 to 179.5 °C

Noted for `CCn1ncc2c(-c3cncc(C)c3)c(CCC(=O)O)c(C)nc21` : its melting point reads 179 to 181 °C

melting point recorded for this compound, `CCn1ncc2c(-c3ccnc(C)c3)c(CCC(=O)O)c(C(C)C)nc21` , is 187 to 189 °C

melting point in this record for `CCn1ncc2c(-c3cncc(Cl)c3)c(/C=C/C(=O)O)c(C(C)C)nc21` : 218 to 220.5 °C

// field: melting point; key: `CCn1ncc2c(-c3cncc(C)c3)c(CCC(=O)O)c(C(C)C)nc21` ; value = 203 to 205 °C
